Where do these numbers come from? They come from patent US20220089758A1.

Biological target: T1, recombinant CD40 ECD-Fc fusion protein (UniProt P25942 21-193, limits assumed, biotinylated (site not stated))
T1 construct: extracellular domain; also called biotinylated CD40 ECD-Fc; not shown: Fc
T1 sequence (P25942 21-193 limits assumed): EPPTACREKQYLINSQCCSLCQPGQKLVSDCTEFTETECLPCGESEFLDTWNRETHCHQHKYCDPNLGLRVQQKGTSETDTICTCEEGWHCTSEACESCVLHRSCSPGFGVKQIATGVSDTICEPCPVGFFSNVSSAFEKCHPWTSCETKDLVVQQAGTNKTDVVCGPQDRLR
Assay: BLI (Octet), biotinylated CD40 ECD-Fc captured on streptavidin probe, antibody in solution
Experimental: Binding affinity to recombinant CD40 ECD-Fc fusion protein were determined using Bio-Layer Interferometry (BLI) on Octet system. Briefly, biotinylated CD40 ECD-Fc were captured by streptavidin probe and the antibody association/dissociation were measured with light interferometry in realtime. KD were then calculated by Kₒₙ and Koff.
readout: pKd
Numbers only, as −log10 of the molar value.

Here is how some binders turned out for pKd.
[
  {
    "binder": "APX005M (antibody, V domains shown) VH: QVQLVESGGGVVQPGRSLRLSCAASGFSFSSTYVCWVRQAPGKGLEWIACIYTGDGTNYSASWAKGRFTISKDSSKNTVYLQMNSLRAEDTAVYFCARPDITYGFAINFWGPGTLVTVSS VL: DIQMTQSPSSLSASVGDRVTIKCQASQSISSRLAWYQQKPGKPPKLLIYRASTLASGVPSRFSGSGSGTDFTLTISSLQPEDVATYYCQCTGYGISWPIGGGTKVEIK",
    "pKd": 10.39
  },
  {
    "binder": "Antibody clone 233 (antibody, V domains shown, Rabbit monoclonal antibody; also called 233H1/233L1) VH: QEQLVESGGGLVQPEGSLTLTCTASGFSFSYYSWACWVRQAPGKGLEWIACIDGGGSRATYYASWAKGRFTISTTSSTTVTLQMTSLTAADTATYFCSRSDYNGYISYFDLWGPGTLVTVSS VL: AFELTQTPSSVEAAVGGTVTINCQASQSIRSDLAWYQQKPGQPPKLLIYKASTLASGVPSRFRGSGSGTEYTLTISDLECADAATYYCQSYYHSSSTAFGGGTEVVVK",
    "pKd": 10.92
  }
]

We next turn to a different binder, shown below.
Input line: Can you look up the measured pKd of Antibody clone 151 (antibody, V domains shown, Rabbit monoclonal antibody; also called 151H1/151L1) VH: QSVEESGGRLVTPGTPLTLTCTVSGFSLSSNAISWVRQAPGKGLEWIGVIDAGGSTYFASWAKGLFTISKTSSTTVDLQMTSLTTEDTATYFCARGWSRHDFWGPGTLVTVSS VL: DVVMTQTPASVSEPVGGTVTIKCQASQSISNILAWYQQKPGQPPRLLIYSASTLASGVSSRFKASGSGTEFTLTISDLECADAATYYCQGYDSTVGVGAFGGGTEVVVK for me?
Output line: 10.08
